- target.under.test: human EP4 receptor (hEP4) (Homo sapiens, UniProt P35408)
- Construct: plasma membrane fraction
- Sequence (P35408 whole entry): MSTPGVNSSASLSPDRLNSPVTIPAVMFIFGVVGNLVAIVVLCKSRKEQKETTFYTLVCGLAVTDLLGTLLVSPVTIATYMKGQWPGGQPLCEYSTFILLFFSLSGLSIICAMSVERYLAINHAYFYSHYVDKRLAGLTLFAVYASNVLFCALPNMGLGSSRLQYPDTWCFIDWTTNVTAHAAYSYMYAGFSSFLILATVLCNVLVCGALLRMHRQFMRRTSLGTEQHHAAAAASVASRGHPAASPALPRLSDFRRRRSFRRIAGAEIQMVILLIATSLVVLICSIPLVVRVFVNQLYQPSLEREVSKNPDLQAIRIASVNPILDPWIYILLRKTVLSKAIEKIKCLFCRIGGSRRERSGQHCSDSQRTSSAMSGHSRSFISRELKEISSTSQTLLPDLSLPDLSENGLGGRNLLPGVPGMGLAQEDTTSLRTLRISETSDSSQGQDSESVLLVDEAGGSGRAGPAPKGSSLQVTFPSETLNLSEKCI
- assay.name: Radioligand binding competition vs [3H]PGE2, human recombinant EP4 receptor
- condition.set: [3H]PGE2 competition, plasma membranes of HEK-293 stable transfectants, 60 min 25° C.
observation.type: pIC50
Answer as the number alone; pIC50 is minus log10 of concentration in mol/L.

Some solved cases for reference:
molecule	pIC50
COC(=O)CSCCCS[C@H]1C(=O)C[C@@H](O)[C@@H]1/C=C/C(O)CCc1ccc2ccccc2c1 (stereo partly drawn)	7.40
O=C(O)CSCCCS[C@H]1C(=O)C[C@@H](O)[C@@H]1/C=C/C(O)CCc1ccc2ccccc2c1 (single isomer, unassigned) [Example 10H]	6.35

Lab note: next molecule to report on.
Give pIC50 for O=C(O)CSCCCS[C@H]1C(=O)C[C@@H](O)[C@@H]1/C=C/C(O)Cc1ccc2ccccc2c1 (single isomer, unassigned) [Example 22L]
8.21

----------
- target.under.test: human EP2 receptor (hEP2) (Homo sapiens)
- Construct: plasma membrane fraction
- Sequence (P43116 whole entry): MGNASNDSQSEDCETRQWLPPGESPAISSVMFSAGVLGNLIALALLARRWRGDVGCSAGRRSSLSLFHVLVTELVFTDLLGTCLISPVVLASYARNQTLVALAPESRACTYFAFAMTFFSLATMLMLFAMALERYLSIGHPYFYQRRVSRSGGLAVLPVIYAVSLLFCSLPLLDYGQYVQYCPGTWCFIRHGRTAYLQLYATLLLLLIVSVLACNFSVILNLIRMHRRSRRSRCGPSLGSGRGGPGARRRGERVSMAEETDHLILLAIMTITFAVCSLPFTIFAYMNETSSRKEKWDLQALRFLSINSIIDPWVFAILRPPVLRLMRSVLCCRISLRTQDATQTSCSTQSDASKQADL
- assay.name: Radioligand binding competition vs [3H]PGE2, human recombinant EP2 receptor
- condition.set: [3H]PGE2 competition, plasma membranes of HEK-293 stable transfectants, 60 min 25° C.
pIC50: −log10 of the molar value.
observation.type: pIC50

Look over these answered cases.
compound	result
COC(=O)CSCCCS[C@H]1C(=O)C[C@@H](O)[C@@H]1/C=C/[C@@H](O)CCc1cc2ccccc2s1 [Example 13L]	< 5.00
C[C@@](O)(/C=C/[C@H]1[C@H](O)CC(=O)[C@@H]1SCCCSCC(=O)O)CCc1cc2ccccc2s1 [Example 34H]	< 5.00
O=C(O)CSCCCS[C@H]1C(=O)C[C@@H](O)[C@@H]1/C=C/C(O)Cc1ccc2ccccc2c1 (single isomer, unassigned) [Example 22L]	< 5.00
O=C(O)CSCCCS[C@H]1C(=O)C[C@@H](O)[C@@H]1/C=C/C(O)Cc1csc2ccccc12 (single isomer, unassigned) [Example 25H]	< 5.00
O=C(O)CSCCCS[C@H]1C(=O)C[C@@H](O)[C@@H]1/C=C/[C@@H](O)CCc1cc2ccccc2s1 [Example 14L]	≤ 5.00
O=C(O)CSCCCS[C@H]1C(=O)C[C@@H](O)[C@@H]1/C=C/C(O)CCc1ccc2ccccc2c1 (single isomer, unassigned) [Example 10L]	< 5.00

Then there is this compound:
Return reported pIC50 for target or system human EP2 receptor (hEP2) (Homo sapiens), item COC(=O)CSCCCS[C@H]1C(=O)C[C@@H](O)[C@@H]1/C=C/C(O)Cc1csc2ccccc12 (single isomer, unassigned) [Example 24L] .
5.03

----------
- target.under.test: human EP3 receptor (hEP3, D isoform) (Homo sapiens, UniProt P43115)
- Construct: plasma membrane fraction
- Sequence (P43115 1-374 isoform P43115-4): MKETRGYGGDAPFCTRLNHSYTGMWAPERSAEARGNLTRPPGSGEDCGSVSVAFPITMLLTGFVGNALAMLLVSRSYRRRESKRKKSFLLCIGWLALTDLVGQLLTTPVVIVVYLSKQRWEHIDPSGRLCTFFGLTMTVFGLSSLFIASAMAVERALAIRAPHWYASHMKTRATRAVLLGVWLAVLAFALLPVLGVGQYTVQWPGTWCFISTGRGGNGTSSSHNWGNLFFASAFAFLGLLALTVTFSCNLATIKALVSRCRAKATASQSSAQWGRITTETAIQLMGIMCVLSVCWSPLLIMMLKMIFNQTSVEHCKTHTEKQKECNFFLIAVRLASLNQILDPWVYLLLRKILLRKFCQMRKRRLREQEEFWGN
- assay.name: Radioligand binding competition vs [3H]PGE2, human recombinant EP3 receptor
- condition.set: [3H]PGE2 competition, plasma membranes of transfected cells (COS-7 transient; HEK-293 also named), 60 min 25° C.
pIC50: −log10 of the molar value.
observation.type: pIC50

compound	target.under.test	result
COC(=O)CSCCCS[C@H]1C(=O)C[C@@H](O)[C@@H]1/C=C/C(O)Cc1ccc2ccccc2c1 (single isomer, unassigned) [Example 21L]	human EP3 receptor (hEP3, D isoform) (Homo sapiens, UniProt P43115)	< 5.00

Give pIC50 for the following compound: O=C(O)CSCCCS[C@H]1C(=O)C[C@@H](O)[C@@H]1/C=C/C(O)Cc1csc2ccccc12 (single isomer, unassigned) [Example 25L]
< 5.00

Give pIC50 for the following compound: CC(O)(/C=C/[C@H]1[C@H](O)CC(=O)[C@@H]1SCCCSCC(=O)O)Cc1ccc2ccccc2c1 (stereo partly drawn) [Example 31L]
5.03

Kindly indicate its recorded pIC50. Item: O=C(O)CSCCCS[C@H]1C(=O)C[C@@H](O)[C@@H]1/C=C/C(O)Cc1ccc2ccccc2c1 (single isomer, unassigned) [Example 22L]
< 5.00

Output measured pIC50 for this item: O=C(O)CSCCCS[C@H]1C(=O)C[C@@H](O)[C@@H]1/C=C/C(O)CCc1ccc2ccccc2c1 (single isomer, unassigned) [Example 10H]
< 5.00

Entry CC(O)(/C=C/[C@H]1[C@H](O)CC(=O)[C@@H]1SCCCSCC(=O)O)CCc1ccc2ccccc2c1 (stereo partly drawn) [Example 28H] needs its pIC50 filled in; supply it.
< 5.00

----------
- target.under.test: human EP4 receptor (hEP4) (Homo sapiens)
- Construct: expressed in transfected cells; plasma membrane fraction
- assay.name: Radioligand binding competition vs [3H]PGE2, human recombinant EP4 receptor
- condition.set: [3H]PGE2 competition, plasma membranes of HEK-293 stable transfectants, 60 min 25° C.
observation.type: log10 IC50 (log10 of the value in nM)
Remember, log10 of IC50, in nM.

compound	target.under.test	observation.type	result
CC(O)(/C=C/[C@H]1[C@H](O)CC(=O)[C@@H]1SCCCSCC(=O)O)CCc1ccc2ccccc2c1 (stereo partly drawn) [Example 28H]	human EP4 receptor (hEP4) (Homo sapiens)	log10 IC50	3.23
COC(=O)CSCCCS[C@H]1C(=O)C[C@@H](O)[C@@H]1/C=C/[C@@](C)(O)CCc1cc2ccccc2s1 [Example 33H]	human EP4 receptor (hEP4) (Homo sapiens)	log10 IC50	2.30
O=C(O)CSCCCS[C@H]1C(=O)C[C@@H](O)[C@@H]1/C=C/[C@@H](O)CCc1cc2ccccc2s1 [Example 14L]	human EP4 receptor (hEP4) (Homo sapiens)	log10 IC50	1.11
CC(O)(/C=C/[C@H]1[C@H](O)CC(=O)[C@@H]1SCCCSCC(=O)O)Cc1ccc2ccccc2c1 (stereo partly drawn) [Example 31L]	human EP4 receptor (hEP4) (Homo sapiens)	log10 IC50	2.95

Determine from records and report log10 IC50 for CC(O)(/C=C/[C@H]1[C@H](O)CC(=O)[C@@H]1SCCCSCC(=O)O)Cc1ccc2ccccc2c1 (stereo partly drawn) [Example 31H]
2.48

Supply recorded log10 IC50 for COC(=O)CSCCCS[C@H]1C(=O)C[C@@H](O)[C@@H]1/C=C/[C@@H](O)CCc1cc2ccccc2s1 [Example 13L] here.
1.97

Give a short answer stating reported log10 IC50 for COC(=O)CSCCCS[C@H]1C(=O)C[C@@H](O)[C@@H]1/C=C/C(O)Cc1csc2ccccc12 (single isomer, unassigned) [Example 24L] .
1.48

Identify measured log10 IC50 corresponding to COC(=O)CSCCCS[C@H]1C(=O)C[C@@H](O)[C@@H]1/C=C/C(C)(O)Cc1ccc2ccccc2c1 (stereo partly drawn) [Example 30L]
3.51

Complete the entry with log10 IC50 for COC(=O)CSCCCS[C@H]1C(=O)C[C@@H](O)[C@@H]1/C=C/[C@@H](O)CCc1cc2ccccc2s1 [Example 13H]
1.96

Give the measured log10 IC50 for O=C(O)CSCCCS[C@H]1C(=O)C[C@@H](O)[C@@H]1/C=C/[C@@H](O)CCc1cc2ccccc2s1 [Example 14H]
1.43

Return the recorded log10 IC50 value; entry: COC(=O)CSCCCS[C@H]1C(=O)C[C@@H](O)[C@@H]1/C=C/[C@@](C)(O)CCc1cc2ccccc2s1 [Example 33L]
2.48

Kindly indicate its recorded log10 IC50. Item: COC(=O)CSCCCS[C@H]1C(=O)C[C@@H](O)[C@@H]1/C=C/C(O)Cc1ccc2ccccc2c1 (single isomer, unassigned) [Example 21L]
1.11

----------
- target.under.test: human EP4 receptor (hEP4) (Homo sapiens, UniProt P35408)
- Construct: plasma membrane fraction
- assay.name: Radioligand binding competition vs [3H]PGE2, human recombinant EP4 receptor
- condition.set: [3H]PGE2 competition, plasma membranes of HEK-293 stable transfectants, 60 min 25° C.
observation.type: IC50 (nM)
Reply with just the number (in nM).

Some solved entries appear below for comparison.
compound	result
COC(=O)CSCCCS[C@H]1C(=O)C[C@@H](O)[C@@H]1/C=C/C(O)Cc1ccc2ccccc2c1 (single isomer, unassigned) [Example 21H]	100
O=C(O)CSCCCS[C@H]1C(=O)C[C@@H](O)[C@@H]1/C=C/C(O)CCc1ccc2ccccc2c1 (single isomer, unassigned) [Example 10L]	19.5
C[C@@](O)(/C=C/[C@H]1[C@H](O)CC(=O)[C@@H]1SCCCSCC(=O)O)CCc1cc2ccccc2s1 [Example 34H]	32
C[C@@](O)(/C=C/[C@H]1[C@H](O)CC(=O)[C@@H]1SCCCSCC(=O)O)CCc1cc2ccccc2s1 [Example 34L]	68
COC(=O)CSCCCS[C@H]1C(=O)C[C@@H](O)[C@@H]1/C=C/C(C)(O)Cc1ccc2ccccc2c1 (stereo partly drawn) [Example 30H]	3100

Continue with the next compound.
Answer with the recorded IC50 of COC(=O)CSCCCS[C@H]1C(=O)C[C@@H](O)[C@@H]1/C=C/C(O)Cc1csc2ccccc12 (single isomer, unassigned) [Example 24H] only.
200
